Molecular target: S1-Fc (SARS-CoV-2, UniProt P0DTC2 16-685)
Assay: phage ELISA
Field: specificity ELISA, percent binding relative to Acro S1. Provide a value for each of the binders that follow.
A number alone suffices; assume %.

Answer with the recorded specificity ELISA, percent binding relative to Acro S1 for the binder listed here: SARS-CoV-2 variant 1-4 (antibody, V domains shown) VH: EVQLLESGGGLVQPGGSLRLSCAASGFTFSSQAMSWVRQAPGKGLEWVSAISGSGGGTYYADSVKGRFTISRDNSKNTLYLQMNSLRAEDTAVYYCAKDRRFGEFDPWGQGTLVTVSS VL: QSALTQPASVSGSPGQSITISCTGTSSDVGTYNLVSWYQQHPGKAPKLMIYEGSQRPSGVSNRFSGSKSGNTASLTISGLQAEDEADYYCCSYAGSSSFVVFGGGTKLTVL
90.8

Answer with the recorded specificity ELISA, percent binding relative to Acro S1 for the binder listed here: SARS-CoV-2 variant 1-29 (antibody, V domains shown) VH: EVQLLESGGGLVQPGGSLRLSCAASGFTFSSYAMYWVRQAPGKGLEWVSAISGSAGSTYYADSVKGRFTISRDNSKNTLYLQMNSLRAEDTAVYYCARDTNDFWSGYSIFDPWGQGTLVTVSS VL: QSALTQPASVSGSPGQSITISCTGTSSDIGSYNLVSWYQQHPGKAPKLMIYEGTKRPSGVSNRFSGSKSGNTASLTISGLQAEDEADYYCCSYAGSRTYVFGGGTKLTVL
94

Answer with the recorded specificity ELISA, percent binding relative to Acro S1 for the binder listed here: SARS-CoV-2 variant 1-2 (antibody, V domains shown) VH: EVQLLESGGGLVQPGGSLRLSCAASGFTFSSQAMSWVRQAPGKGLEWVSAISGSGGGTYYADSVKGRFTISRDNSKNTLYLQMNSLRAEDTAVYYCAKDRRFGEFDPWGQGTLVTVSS VL: QSALTQPASVSGSPGQSITISCTGTSSGVGSYNLVSWYQQHPGKAPKLMIYEGIKRPSGVSNRFSGSKSGNTASLTISGLQAEDEADYYCCSYAGSSSFVVFGGGTKLTVL
95.4
